molecular target: human FGFR1c together with human beta-Klotho (KLB), stably expressed on CHO Flp-In cells (human), P11362; assay: cell-based or functional assay
Sequence (P11362 22-822, chain 1 of 2): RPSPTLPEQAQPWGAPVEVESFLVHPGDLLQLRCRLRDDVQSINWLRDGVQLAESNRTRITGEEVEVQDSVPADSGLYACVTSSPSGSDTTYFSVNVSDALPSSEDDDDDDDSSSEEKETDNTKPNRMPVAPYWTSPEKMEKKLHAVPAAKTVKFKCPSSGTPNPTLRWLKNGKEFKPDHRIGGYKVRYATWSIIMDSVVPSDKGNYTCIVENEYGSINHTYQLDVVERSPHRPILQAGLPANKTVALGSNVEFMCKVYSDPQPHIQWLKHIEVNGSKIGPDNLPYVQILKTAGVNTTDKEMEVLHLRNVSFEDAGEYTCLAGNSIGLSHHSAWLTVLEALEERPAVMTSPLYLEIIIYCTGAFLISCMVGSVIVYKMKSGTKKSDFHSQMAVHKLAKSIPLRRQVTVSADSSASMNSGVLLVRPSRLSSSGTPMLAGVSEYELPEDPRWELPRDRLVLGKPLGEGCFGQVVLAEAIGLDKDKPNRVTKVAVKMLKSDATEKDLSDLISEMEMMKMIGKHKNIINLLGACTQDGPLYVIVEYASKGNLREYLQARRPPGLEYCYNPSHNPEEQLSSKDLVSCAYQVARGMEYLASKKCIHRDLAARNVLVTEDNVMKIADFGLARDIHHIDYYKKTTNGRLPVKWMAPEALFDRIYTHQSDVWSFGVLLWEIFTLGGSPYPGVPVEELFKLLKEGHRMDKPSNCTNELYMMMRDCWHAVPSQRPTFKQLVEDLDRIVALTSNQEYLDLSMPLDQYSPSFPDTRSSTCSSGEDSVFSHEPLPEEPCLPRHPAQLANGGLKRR
Sequence (Q86Z14 whole entry, chain 2 of 2, further chain): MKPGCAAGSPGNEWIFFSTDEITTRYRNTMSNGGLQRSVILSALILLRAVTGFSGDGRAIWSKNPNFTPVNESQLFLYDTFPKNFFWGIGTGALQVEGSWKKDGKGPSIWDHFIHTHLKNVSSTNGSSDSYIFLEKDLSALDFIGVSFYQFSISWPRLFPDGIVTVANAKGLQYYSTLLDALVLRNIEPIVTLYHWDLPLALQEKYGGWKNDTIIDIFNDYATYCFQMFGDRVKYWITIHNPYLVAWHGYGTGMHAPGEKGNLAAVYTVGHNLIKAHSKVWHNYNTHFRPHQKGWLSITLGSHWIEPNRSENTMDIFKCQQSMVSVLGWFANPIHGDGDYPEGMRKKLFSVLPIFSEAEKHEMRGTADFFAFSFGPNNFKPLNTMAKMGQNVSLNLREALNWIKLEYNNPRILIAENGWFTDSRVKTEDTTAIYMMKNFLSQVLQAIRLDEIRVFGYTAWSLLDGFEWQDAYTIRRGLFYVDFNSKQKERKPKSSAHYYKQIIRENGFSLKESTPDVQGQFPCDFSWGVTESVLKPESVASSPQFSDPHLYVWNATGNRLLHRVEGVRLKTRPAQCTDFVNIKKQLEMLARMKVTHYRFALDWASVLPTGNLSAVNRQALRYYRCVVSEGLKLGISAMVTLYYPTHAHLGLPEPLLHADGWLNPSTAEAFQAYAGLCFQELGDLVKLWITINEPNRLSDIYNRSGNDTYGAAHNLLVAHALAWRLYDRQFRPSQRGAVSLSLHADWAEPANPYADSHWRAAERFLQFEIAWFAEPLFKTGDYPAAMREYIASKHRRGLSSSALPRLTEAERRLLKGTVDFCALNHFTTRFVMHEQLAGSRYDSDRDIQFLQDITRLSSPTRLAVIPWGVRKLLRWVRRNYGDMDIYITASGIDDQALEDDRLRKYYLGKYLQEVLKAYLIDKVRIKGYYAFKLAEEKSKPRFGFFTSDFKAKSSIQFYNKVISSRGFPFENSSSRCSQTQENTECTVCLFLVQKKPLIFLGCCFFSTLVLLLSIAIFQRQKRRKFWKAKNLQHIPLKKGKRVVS
TEST READOUT: pERK ICW EC50 (nmol/L)
Use nmol/L as the unit, but write only the number.

As a guide, the following entries are already answered.
{"BINDER": "FGF21 D155E (SEQ ID NO: 128), Q9NSA1 29-209 (ligand) GHPIPDSSPLLQFGGQVRQRYLYTDDAQQTEAHLEIREDGTVGGAADQSPESLLQLKALKPGVIQILGVKTSRFLCQRPDGALYGSLHFDPEACSFRELLLEDGYNVYQSEAHGLPLHLPGNKSPHREPAPRGPARFLPLPGLPPAPPEPPGILAPQPPDVGSSDPLSMVGPSQGRSPSYAS", "pERK ICW EC50 / nmol/L": 0.13}
{"BINDER": "FGF21 K150H (SEQ ID NO: 139), Q9NSA1 29-209 (ligand) GHPIPDSSPLLQFGGQVRQRYLYTDDAQQTEAHLEIREDGTVGGAADQSPESLLQLKALKPGVIQILGVKTSRFLCQRPDGALYGSLHFDPEACSFRELLLEDGYNVYQSEAHGLPLHLPGNHSPHRDPAPRGPARFLPLPGLPPAPPEPPGILAPQPPDVGSSDPLSMVGPSQGRSPSYAS", "pERK ICW EC50 / nmol/L": 0.15}
{"BINDER": "FGF21 D155L (SEQ ID NO: 124), Q9NSA1 29-209 (ligand) GHPIPDSSPLLQFGGQVRQRYLYTDDAQQTEAHLEIREDGTVGGAADQSPESLLQLKALKPGVIQILGVKTSRFLCQRPDGALYGSLHFDPEACSFRELLLEDGYNVYQSEAHGLPLHLPGNKSPHRLPAPRGPARFLPLPGLPPAPPEPPGILAPQPPDVGSSDPLSMVGPSQGRSPSYAS", "pERK ICW EC50 / nmol/L": 0.11}

The binder listed as FGF21 P158H, R159H (SEQ ID NO: 142), Q9NSA1 29-209 (ligand) GHPIPDSSPLLQFGGQVRQRYLYTDDAQQTEAHLEIREDGTVGGAADQSPESLLQLKALKPGVIQILGVKTSRFLCQRPDGALYGSLHFDPEACSFRELLLEDGYNVYQSEAHGLPLHLPGNKSPHRDPAHHGPARFLPLPGLPPAPPEPPGILAPQPPDVGSSDPLSMVGPSQGRSPSYAS has a reported pERK ICW EC50 of 0.84
